Taken from patent US8188135B2.

Target: UniProtKB Q9QZN9
Sequence (Q9QZN9 whole entry): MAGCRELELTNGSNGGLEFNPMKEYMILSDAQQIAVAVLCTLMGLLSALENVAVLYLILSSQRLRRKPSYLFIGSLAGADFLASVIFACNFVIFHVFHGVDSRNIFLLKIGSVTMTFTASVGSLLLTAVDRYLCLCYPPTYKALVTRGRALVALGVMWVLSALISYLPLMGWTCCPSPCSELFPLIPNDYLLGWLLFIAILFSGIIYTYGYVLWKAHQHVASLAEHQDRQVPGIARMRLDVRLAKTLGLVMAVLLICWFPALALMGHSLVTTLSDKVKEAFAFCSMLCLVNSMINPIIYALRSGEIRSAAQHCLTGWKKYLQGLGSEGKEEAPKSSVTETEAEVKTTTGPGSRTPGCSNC
Assay: rat CB2 radioligand binding assay ([3H]CP 55,940 competition)
Set-up: expressed in transfected cells; host or cells: HEK293
Conditions: rat CB2 (Ki, nM), HEK293 membranes, 0.5 nM [3H]CP 55,940
measuredProperty: log10 Ki (log10 of the value in nM)
Base-10 log of Ki, unit nM.

Here's what some known entries look like.
• CC(C)(C)c1nn(CCCC#N)/c(=N/C(=O)c2cc(C(F)(F)F)ccc2OCCCC#N)s1 [Example 85] = 0.40
• Cn1c(C(C)(C)C)c/c(=N\C(=O)c2cc(C(F)(F)F)ccc2OCCC(C)(C)O)n1CC1CC1 [Example 51] = 1.18
• CCCCCn1/c(=N/C(=O)c2cc(C(F)(F)F)ccc2OCC(C)(C)O)cc(C(C)(C)C)n1C [Example 99] = 0.64
• C=C[C@H](O)COc1ccc(C(F)(F)F)cc1C(=O)/N=c1\cc(C(C)(C)C)n(C)n1C[C@H]1CCCO1 [Example 107] = 0.46
• Cn1c(C(C)(C)C)c/c(=N\C(=O)c2cc(C(F)(F)F)ccc2OCC(C)(C)C(=O)O)n1C[C@H]1CCCO1 [Example 124] = 1.63
• Cn1c(C(C)(C)C)c/c(=N\C(=O)c2cc(C(F)(F)F)ccc2OC[C@@H]2CCCN2S(C)(=O)=O)n1C[C@H]1CCCO1 [Example 61] = 2.64

Enquiry: Dear colleague, I am looking for the recorded log10 Ki of the following compound: Cn1c(C(C)(C)C)c/c(=N\C(=O)c2cc(C(F)(F)F)ccc2OCCNS(=O)(=O)C2CC2)n1C[C@H]1CCCO1 [Example 49]
Return: 0.43

Enquiry: Queued: CCCCn1/c(=N/C(=O)c2cc([N+](=O)[O-])ccc2OCC(C)(C)O)cc(C(C)(C)C)n1C [Example 138]
Return: 1.28

Enquiry: Queued: CCCCn1/c(=N/C(=O)c2cc(C(F)(F)F)ccc2SCC(C)(C)O)cc(C(C)(C)C)n1C [Example 137]
Return: 1.41

Enquiry: Queued: CCCCn1cc(C(C)(C)C)o/c1=N\C(=O)c1cc(C(F)(F)F)ccc1OCC(C)(C)O [Example 93]
Return: 0.59

Enquiry: Queued: Cn1c(C(C)(C)C)c/c(=N\C(=O)c2cc(C(F)(F)F)ccc2OC[C@@H]2CCC(=O)N2)n1C[C@H]1CCCO1 [Example 12]
Return: 1.66
